- Tested on: CYP enzymes in mouse liver microsomes (MLM)
- method description: Inhibition of 20-HETE production in mouse liver microsomes (MLM)
- Assay type: biochemical
- measurement parameters: 1000 nM
Listed here are compounds together with their documented MLM (% inh @ 1000 nM).

- compound: "CC(C)(O)CNC(=O)N1CCC(c2ccc(-c3cn[nH]c3)cc2F)CC1"
  MLM (% inh @ 1000 nM): "48.10%"
- compound: "O=C(C1CCC(O)C1)N1CCC(c2ccc(-c3cn[nH]c3)cc2F)CC1 (single isomer, unassigned) [Compound 145a]"
  MLM (% inh @ 1000 nM): "60.45%"
- compound: "O=C(C1CCC(O)C1)N1CCC(c2ccc(-c3cn[nH]c3)cc2F)CC1 (single isomer, unassigned) [Compound 145b]"
  MLM (% inh @ 1000 nM): "48.10%"
- compound: "O=C(C1CCCCC1O)N1CCC(c2ccc(-c3cn[nH]c3)cc2F)CC1 (single isomer, unassigned) [Compound 149b]"
  MLM (% inh @ 1000 nM): "47.54%"
- compound: "O=C1CCCCCN1CC1CCN(c2ccc(-c3cn[nH]c3)cc2F)CC1"
  MLM (% inh @ 1000 nM): "59.36%"
- compound: "COC1(C(=O)N2CCC(c3ccc(-c4cn[nH]c4)cc3)CC2)CCCCC1"
  MLM (% inh @ 1000 nM): "40.18%"
- compound: "O=C(N1CCC(c2ccc(-c3cn[nH]c3)cc2F)CC1)C1(F)CCCCC1"
  MLM (% inh @ 1000 nM): "59.36%"
- compound: "O=C(C1CCOC1)N1CCC(c2ccc(-c3cn[nH]c3)cc2F)CC1 (centres unmarked)"
  MLM (% inh @ 1000 nM): "60.66%"
